# protein stability index per entry
B1: PLD5 (parent)
chain: WIVDKQHVYIGSAGLDWQSLGQMK

Variants of: B1
assay_overview: protein stability index of a GFP-peptide fusion (GPS, HEK-293T) (PSI 1-6); higher = more stable;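 note: lentivirally expressed fusions sorted by FACS into six bins by GFP to DsRed ratio, PSI derived from sequencing read proportions per bin multiplied by bin number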
recorded_conditions: c terminus: a fixed tail appended
reported_property: protein stability index

mutation_annotation=Q18C assay_value=3.36
mutation_annotation=W1S assay_value=2.2
mutation_annotation=S12W assay_value=1.92
